# System: Rhipicephalus sanguineus
# ASSAY_TEXT: Rapid screening protocol for topical application on brown dog ticks (% mortality)
# APPLIED_CONDITIONS: data from laboratory 2
MEASURED_QUANTITY: R. sanguineus Mortality (%) 24 h

Reported R. sanguineus Mortality (%) 24 h for CCCN(N=C(C)c1cc(Cl)ccc1NS(=O)(=O)C(F)(F)F)c1cccc(F)c1 [Compound 72] : what is it? 100%

Reported R. sanguineus Mortality (%) 24 h for CC(=NN(C)c1ccccc1)c1cc(Cl)ccc1NS(=O)(=O)C(F)(F)F [Compound 9] : what is it? 98%

Reported R. sanguineus Mortality (%) 24 h for CCN(N=C(C)c1cc(Cl)ccc1NS(=O)(=O)C(F)(F)F)c1ccc(Br)cc1 [Compound 54] : what is it? 95%

Reported R. sanguineus Mortality (%) 24 h for CC(=NN(c1ccc(Cl)cc1)C(C)C)c1cc(Cl)ccc1NS(=O)(=O)C(F)(F)F [Compound 33] : what is it? 88%

Reported R. sanguineus Mortality (%) 24 h for CC(=NN1CCCC1)c1cc(Cl)ccc1NS(=O)(=O)C(F)(F)F [Compound 116] : what is it? 93%

Reported R. sanguineus Mortality (%) 24 h for CC(=NN(C)C(=O)c1ccc(Cl)cc1Cl)c1cc(Cl)ccc1NS(=O)(=O)C(F)(F)F [Compound 62] : what is it? 100%

Reported R. sanguineus Mortality (%) 24 h for CCC(=NN(CC)C(=O)OC)c1cc(Cl)ccc1NS(=O)(=O)C(F)(F)F [Compound 140] : what is it? 100%

Reported R. sanguineus Mortality (%) 24 h for CCCN(N=C(C)c1cc(Cl)ccc1NS(=O)(=O)C(F)(F)F)c1ccc(C)cc1 [Compound 73] : what is it? 88%

Reported R. sanguineus Mortality (%) 24 h for CCN(N=C(C)c1cc(Cl)ccc1NS(=O)(=O)C(F)(F)F)c1ccc(Cl)cc1Cl [Compound 30] : what is it? 90%

Reported R. sanguineus Mortality (%) 24 h for CC(=NN(C)C)c1ccccc1NS(=O)(=O)C(F)(F)F [Compound 124] : what is it? 88%

Reported R. sanguineus Mortality (%) 24 h for CCCN(N=C(C)c1cc(Cl)ccc1NS(=O)(=O)C(F)(F)F)c1c(Cl)cccc1Cl [Compound 103] : what is it? 40%

Reported R. sanguineus Mortality (%) 24 h for CC(=NN(C)c1cccc(C(F)(F)F)c1)c1cc(Cl)ccc1NS(=O)(=O)C(F)(F)F [Compound 203] : what is it? 95%

Reported R. sanguineus Mortality (%) 24 h for CCCN(N=C(C)c1cc(Cl)ccc1NS(=O)(=O)C(F)(F)F)c1ccc(Br)cc1 [Compound 53] : what is it? 50%

Reported R. sanguineus Mortality (%) 24 h for CCN(N=C(C)c1cc(Cl)ccc1NS(=O)(=O)C(F)(F)F)c1ccccc1 [Compound 34] : what is it? 100%

Reported R. sanguineus Mortality (%) 24 h for C/C(=N\N(CCC#N)C(=O)c1ccccc1)c1cc(Cl)ccc1NS(=O)(=O)C(F)(F)F [Compound 222] : what is it? 88%

Reported R. sanguineus Mortality (%) 24 h for CCC(=NN1CCCCCC1)c1cc(Cl)ccc1NS(=O)(=O)C(F)(F)F [Compound 131] : what is it? 98%

Reported R. sanguineus Mortality (%) 24 h for CC(=NN(c1cccc(Cl)c1Cl)C(C)C)c1cc(Cl)ccc1NS(=O)(=O)C(F)(F)F [Compound 66] : what is it? 48%

###

What follows is a record of C. felis Mortality (%) 24 h for Ctenocephalides felis.
The reply should be a number in %, with the unit left off.

Item CC(=NN(C)c1ccccc1)c1ccc(C(F)(F)F)cc1NS(=O)(=O)C(F)(F)F [Compound 120] with Ctenocephalides felis - C. felis Mortality (%) 24 h? 83

Item CC(=NN(C)c1cccc(Cl)c1)c1cc(Cl)ccc1NS(=O)(=O)C(F)(F)F [Compound 51] with Ctenocephalides felis - C. felis Mortality (%) 24 h? 100

Item CCN(N=C(C)c1cc(Cl)ccc1NS(=O)(=O)C(F)(F)F)c1ccc(Cl)cc1Cl [Compound 30] with Ctenocephalides felis - C. felis Mortality (%) 24 h? 100

Item CC(=NN(C)c1ccc(Cl)c(Cl)c1)c1cc(Cl)ccc1NS(=O)(=O)C(F)(F)F [Compound 96] with Ctenocephalides felis - C. felis Mortality (%) 24 h? 99

Item CN(C)N=C(c1ccccc1)c1cc(Cl)ccc1NS(=O)(=O)C(F)(F)F [Compound 123] with Ctenocephalides felis - C. felis Mortality (%) 24 h? 45

Item CCC(=NN1CCCCC1)c1cc(Cl)ccc1NS(=O)(=O)C(F)(F)F [Compound 129] with Ctenocephalides felis - C. felis Mortality (%) 24 h? 98

Item CC(=NN(C)c1cnccn1)c1cc(Cl)ccc1NS(=O)(=O)C(F)(F)F [Compound 206] with Ctenocephalides felis - C. felis Mortality (%) 24 h? 12

Item CC(=NN1CC(=O)NC1=O)c1cc(Cl)ccc1NS(=O)(=O)C(F)(F)F [Compound 55] with Ctenocephalides felis - C. felis Mortality (%) 24 h? 100

###

# Test system: Ctenocephalides felis
# APPLIED_CONDITIONS: 24 h; data from laboratory 1
Would you mind telling me the reported C. felis Mortality (%) 24 h of each entry?
The reply should be a number in %, with the unit left off.

Reported C. felis Mortality (%) 24 h for C/C(=N\NC(=O)Nc1ccc(C(F)(F)F)cc1)c1cc(Cl)ccc1NS(=O)(=O)C(F)(F)F : what is it? 18

Reported C. felis Mortality (%) 24 h for CN(N=C(c1ccccc1)c1cc(Cl)ccc1NS(=O)(=O)C(F)(F)F)c1ccccc1 (single isomer, unassigned) [Compound 118] : what is it? 27

Reported C. felis Mortality (%) 24 h for CC(=NN(CCC#N)CCC#N)c1cc(Cl)ccc1NS(=O)(=O)C(F)(F)F : what is it? 24

Reported C. felis Mortality (%) 24 h for O=S(=O)(Nc1ccc(Cl)cc1C(=NN1CCCCC1)c1ccccc1)C(F)(F)F : what is it? 17

###

# System: Ctenocephalides felis
# ASSAY_TEXT: Ctenocephalides felis adulticide assay: C. felis dose response (LC50)
MEASURED_QUANTITY: C. felis LC50 (ppm)
The reply should be a number in ppm, with the unit left off.

Reported C. felis LC50 for CCCN(N=C(C)c1cc(Cl)ccc1NS(=O)(=O)C(F)(F)F)c1ccc(Cl)cc1 : what is it? 0.23

Reported C. felis LC50 for CCN(N=C(C)c1cc(Cl)ccc1NS(=O)(=O)C(F)(F)F)c1cccc(Cl)c1 : what is it? 2.5

Reported C. felis LC50 for CC(=NN(C)c1cccc(F)c1)c1cc(Cl)ccc1NS(=O)(=O)C(F)(F)F : what is it? 0.76

Reported C. felis LC50 for CC(=NN(C)C(=O)c1ccc(Cl)cc1Cl)c1cc(Cl)ccc1NS(=O)(=O)C(F)(F)F : what is it? 2.2

Reported C. felis LC50 for C/C(=N\N(C)C1CCCCC1)c1cc(Cl)ccc1NS(=O)(=O)C(F)(F)F : what is it? 2.54

Reported C. felis LC50 for CC(=NN(C)c1ccc(C)cc1)c1cc(Cl)ccc1NS(=O)(=O)C(F)(F)F : what is it? 1.4

Reported C. felis LC50 for CC(=NN(C)c1cccc(Cl)c1Cl)c1cc(Cl)ccc1NS(=O)(=O)C(F)(F)F : what is it? 1.7

Reported C. felis LC50 for C/C(=N\N(CCC#N)C(=O)c1ccccc1)c1cc(Cl)ccc1NS(=O)(=O)C(F)(F)F : what is it? 2.64

###

MEASURED_QUANTITY: C. felis Mortality (%) 8 h
The reply should be a number in %, with the unit left off.

Item CC(=NN(C)c1ccccc1)c1ccccc1NS(=O)(=O)C(F)(F)F with Ctenocephalides felis - C. felis Mortality (%) 8 h? 56

Item CCC(=NN1CCCCC1)c1cc(Cl)ccc1NS(=O)(=O)C(F)(F)F [Compound 130] with Ctenocephalides felis - C. felis Mortality (%) 8 h? 34

Item CC(=NN(C)c1cc(Cl)cc(Cl)c1)c1cc(Cl)ccc1NS(=O)(=O)C(F)(F)F with Ctenocephalides felis - C. felis Mortality (%) 8 h? 57

Item CCC(=NN(CC)C(=O)OC)c1cc(Cl)ccc1NS(=O)(=O)C(F)(F)F with Ctenocephalides felis - C. felis Mortality (%) 8 h? 89

###

# System: Ctenocephalides felis
# APPLIED_CONDITIONS: 8 h; data from laboratory 1
MEASURED_QUANTITY: C. felis Mortality (%) 8 h
The reply should be a number in %, with the unit left off.

Item CN(N=C1CCc2cccc(NS(=O)(=O)C(F)(F)F)c21)c1ccccc1 [Compound 205] with Ctenocephalides felis - C. felis Mortality (%) 8 h? 12

Item CC(=NNc1ccc(Cl)cc1)c1ccc(NS(=O)(=O)C(F)(F)F)cc1 [Compound 165] with Ctenocephalides felis - C. felis Mortality (%) 8 h? 6

Item CCC(=NN1CCCC1)c1cc(Cl)ccc1NS(=O)(=O)C(F)(F)F [Compound 128] with Ctenocephalides felis - C. felis Mortality (%) 8 h? 12

Item CC(=NN(C)c1ccccc1)c1cc(Cl)ccc1N(COC(=O)C(C)(C)C)S(=O)(=O)C(F)(F)F [Compound 111] with Ctenocephalides felis - C. felis Mortality (%) 8 h? 14
